System: NHDF
ASSAY_SUMMARY: Antiproliferative activity against NHDF at 30 uM after 72 hrs by MTT assay relative to control
Type: cell-based
EXPERIMENTAL_CONTEXT: human
Decision: Activity >= 80% yields true (1), all other cases yield false (0).

[Q] Decide: Activity of CC(=O)C1C(=O)N(c2ccccc2)C(=S)N(c2ccccc2)C1=O >= 80%?
[A] true (1)

[Q] Entry O=C1NC(=O)C(=CNc2ccccc2C(=O)O)C(=O)N1 please
[A] true (1)

[Q] Entry COc1ccc(C=C2C(=O)NC(=O)NC2=O)cc1 please
[A] false (0)

----------
Test system: NHDF
ASSAY_SUMMARY: Antiproliferative activity against NHDF at 30 uM after 72 hrs by MTT assay relative to control
Format: cell-based
EXPERIMENTAL_CONTEXT: human
Please provide measured Activity for the entries that follow.
Express it in %; write the number only.

[Q] Write down the reported Activity of O=C(O)c1ccccc1NC=C1C(=O)N(c2ccccc2)C(=S)N(c2ccccc2)C1=O , test system: NHDF.
[A] 82.24

[Q] Entry CN1C(=O)C(=CNC(N)=O)C(=O)N(C)C1=O please
[A] 86.84

[Q] Entry O=C1C(=Cc2ccccc2[N+](=O)[O-])C(=O)N(c2ccccc2)C(=S)N1c1ccccc1 please
[A] 77.56

[Q] Entry NC(=O)NC=C1C(=O)NC(=O)NC1=O please
[A] 78.89

[Q] Entry O=c1[nH]cc(F)c(=O)[nH]1 [FLUOROURACIL] please
[A] 58.31

[Q] Entry CN1C(=O)C(=CNc2cc([N+](=O)[O-])ccc2Cl)C(=O)N(C)C1=O please
[A] 66.98

[Q] Entry O=C1NC(=O)C(=Cc2ccccc2[N+](=O)[O-])C(=O)N1 please
[A] 72.88

[Q] Entry COc1ccc(CC2C(=O)NC(=O)NC2=O)cc1 please
[A] 60.77

[Q] Entry CN1C(=O)C(=CNC(N)=S)C(=O)N(C)C1=O please
[A] 84.63

[Q] Entry N#CC(c1ccc(Br)cc1)c1c([O-])[nH]c(=S)[nH]c1=O.[Na+] (stereo not drawn) please
[A] 89.93

[Q] Entry CC(NN)=C1C(=O)NC(=O)NC1=O please
[A] 82.68

[Q] Entry O=C1NC(=S)NC(=O)C1=CNc1ccc([N+](=O)[O-])cc1Cl please
[A] 76.01

[Q] Entry CC(NNc1ccc([N+](=O)[O-])cc1[N+](=O)[O-])=C1C(=O)NC(=O)NC1=O please
[A] 79.47

[Q] Entry O=C1NC(=S)NC(=O)C1=CNc1ccccc1[N+](=O)[O-] please
[A] 78.75

[Q] Entry CC(=O)C1C(=O)NC(=O)NC1=O please
[A] 124.84

[Q] Entry O=C1NC(=S)NC(=O)C1=Cc1ccccc1[N+](=O)[O-] please
[A] 81.31

[Q] Entry CC(NN)=C1C(=O)N(c2ccccc2)C(=S)N(c2ccccc2)C1=O please
[A] 86.68

[Q] Entry CC(=O)C1C(=O)N(C)C(=O)N(C)C1=O please
[A] 94.14

[Q] Entry CC(NNc1ccccc1)=C1C(=O)NC(=O)NC1=O please
[A] 74.87

[Q] Entry NC(=S)NC=C1C(=O)NC(=S)NC1=O please
[A] 83.56

[Q] Entry O=C1NC(=S)NC(=O)C1=CNc1ccccc1C(=O)O please
[A] 79.11

[Q] Entry CC(NNc1ccc([N+](=O)[O-])cc1[N+](=O)[O-])=C1C(=O)N(C)C(=O)N(C)C1=O please
[A] 73.63

[Q] Entry CN1C(=O)C(=CNc2ccccc2C(=O)O)C(=O)N(C)C1=O please
[A] 71.19

// provenance: ChEMBL document CHEMBL4138236
